The measured values listed here are drawn from patent US20030068675.

- target_system: ZFP SBS#997 (synthetic)
- Sequence (chain, as listed by the source): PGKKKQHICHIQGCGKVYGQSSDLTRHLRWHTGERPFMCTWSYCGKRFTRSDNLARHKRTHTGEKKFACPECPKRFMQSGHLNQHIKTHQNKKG
- assay: EMSA
- recorded_conditions: tags: MBP fusion
property_name: Kd

In [3]: df
Out[3]:
                                     binder   result
0  AGAGAGGCT (dsDNA) DNA 1: AGAGAGGCT DNA 2: AGCCTCTCT  1.65 nM
